test: Stability of compound in culture media assessed as compound hydrolysis by measuring half life at 50 uM by HPLC analysis; assay type: physicochemical
measure.name: half-life at 50 µM

// known answers, use as guide
Nc1ccn([C@H]2C[C@H](O)[C@@H](COC(=O)CCCCCCCCC[P+](c3ccccc3)(c3ccccc3)c3ccccc3)O2)c(=O)n1.O=C(O)C(F)(F)F.O=C([O-])C(F)(F)F ... > 17.8 h
Nc1ccn([C@H]2C[C@H](O)[C@@H](COC(=O)CCCCC[P+](c3ccccc3)(c3ccccc3)c3ccccc3)O2)c(=O)n1.O=C(O)C(F)(F)F.O=C([O-])C(F)(F)F ... > 17.8 h

Attention now turns to another entry.
Lookup result for O=C(CCCCCCCCC[P+](c1ccccc1)(c1ccccc1)c1ccccc1)OC[C@H]1O[C@@H](n2ccc(NC(=O)c3ccc(-c4c5ccc(=O)cc-5oc5cc(O)ccc45)c(C(=O)O)c3)nc2=O)C[C@@H]1O.O=C([O-])C(F)(F)F ; measured half-life at 50 µM: > 17.8 h

----------
assay: Drug concentration in living human MCF7 cells at 50 uM incubated for 24 hrs by flow cytometry analysis; assay type: ADME, cell-based; conditions: mcf7, 24 h
measure.name: Drug uptake (%)

// known answers, use as guide
O=C(CC[P+](c1ccccc1)(c1ccccc1)c1ccccc1)OC[C@H]1O[C@@H](n2ccc(NC(=O)c3ccc(-c4c5ccc(=O)cc-5oc5cc(O)ccc45)c(C(=O)O)c3)nc2=O)C[C@@H]1O.O=C([O-])C(F)(F)F ... 99
O=C(Nc1ccn([C@H]2C[C@H](O)[C@@H](CO)O2)c(=O)n1)c1ccc(-c2c3ccc(=O)cc-3oc3cc(O)ccc23)c(C(=O)O)c1 ... 87

(A) O=C(CCCCCCCCC[P+](c1ccccc1)(c1ccccc1)c1ccccc1)OC[C@H]1O[C@@H](n2ccc(NC(=O)c3ccc(-c4c5ccc(=O)cc-5oc5cc(O)ccc45)c(C(=O)O)c3)nc2=O)C[C@@H]1O.O=C([O-])C(F)(F)F
(B) O=C(CCCCC[P+](c1ccccc1)(c1ccccc1)c1ccccc1)OC[C@H]1O[C@@H](n2ccc(NC(=O)c3ccc(-c4c5ccc(=O)cc-5oc5cc(O)ccc45)c(C(=O)O)c3)nc2=O)C[C@@H]1O.O=C([O-])C(F)(F)F
Request: Form: Entry with minimum Drug uptake (choose one): A / B Use the label to indicate which entry you chose.
Result: B

----------
experiment: Drug concentration in living human MCF7 cells at 25 uM incubated for 24 hrs by flow cytometry analysis; format: ADME, cell-based; conditions: mcf7, 24 h
measure.name: Drug uptake (%)

// known answers, use as guide
O=C(CC[P+](c1ccccc1)(c1ccccc1)c1ccccc1)OC[C@H]1O[C@@H](n2ccc(NC(=O)c3ccc(-c4c5ccc(=O)cc-5oc5cc(O)ccc45)c(C(=O)O)c3)nc2=O)C[C@@H]1O.O=C([O-])C(F)(F)F ... 96
O=C(CCCCC[P+](c1ccccc1)(c1ccccc1)c1ccccc1)OC[C@H]1O[C@@H](n2ccc(NC(=O)c3ccc(-c4c5ccc(=O)cc-5oc5cc(O)ccc45)c(C(=O)O)c3)nc2=O)C[C@@H]1O.O=C([O-])C(F)(F)F ... 3

(I) O=C(Nc1ccn([C@H]2C[C@H](O)[C@@H](CO)O2)c(=O)n1)c1ccc(-c2c3ccc(=O)cc-3oc3cc(O)ccc23)c(C(=O)O)c1
(II) O=C(CCCCCCCCC[P+](c1ccccc1)(c1ccccc1)c1ccccc1)OC[C@H]1O[C@@H](n2ccc(NC(=O)c3ccc(-c4c5ccc(=O)cc-5oc5cc(O)ccc45)c(C(=O)O)c3)nc2=O)C[C@@H]1O.O=C([O-])C(F)(F)F
Request: Please tell me which of the two, I or II , has the higher reported Drug uptake value. Use the label to indicate which entry you chose.
Result: II

----------
assay: Stability of compound in MCF7 cell extract assessed as compound hydrolysis by measuring half life at 50 uM by HPLC analysis; type: physicochemical; conditions: human
measure.name: half-life at 50 µM

// known answers, use as guide
Nc1ccn([C@H]2C[C@H](O)[C@@H](COC(=O)CCCCC[P+](c3ccccc3)(c3ccccc3)c3ccccc3)O2)c(=O)n1.O=C(O)C(F)(F)F.O=C([O-])C(F)(F)F ... > 8.4 h
O=C(CCCCCCCCC[P+](c1ccccc1)(c1ccccc1)c1ccccc1)OC[C@H]1O[C@@H](n2ccc(NC(=O)c3ccc(-c4c5ccc(=O)cc-5oc5cc(O)ccc45)c(C(=O)O)c3)nc2=O)C[C@@H]1O.O=C([O-])C(F)(F)F ... > 8.4 h
Nc1ccn([C@H]2C[C@H](O)[C@@H](COC(=O)CCCCCCCCC[P+](c3ccccc3)(c3ccccc3)c3ccccc3)O2)c(=O)n1.O=C(O)C(F)(F)F.O=C([O-])C(F)(F)F ... > 8.4 h

Lookup result for Nc1ccn([C@H]2C[C@H](O)[C@@H](COC(=O)CC[P+](c3ccccc3)(c3ccccc3)c3ccccc3)O2)c(=O)n1.O=C(O)C(F)(F)F.O=C([O-])C(F)(F)F ; measured half-life at 50 µM: > 8.4 h

----------
assay: Drug concentration in living human MCF7 cells at 10 uM incubated for 24 hrs by flow cytometry analysis; type: ADME, cell-based; conditions: mcf7, 24 h
measure.name: Drug uptake (%)

(a) O=C(CC[P+](c1ccccc1)(c1ccccc1)c1ccccc1)OC[C@H]1O[C@@H](n2ccc(NC(=O)c3ccc(-c4c5ccc(=O)cc-5oc5cc(O)ccc45)c(C(=O)O)c3)nc2=O)C[C@@H]1O.O=C([O-])C(F)(F)F
(b) O=C(CCCCCCCCC[P+](c1ccccc1)(c1ccccc1)c1ccccc1)OC[C@H]1O[C@@H](n2ccc(NC(=O)c3ccc(-c4c5ccc(=O)cc-5oc5cc(O)ccc45)c(C(=O)O)c3)nc2=O)C[C@@H]1O.O=C([O-])C(F)(F)F
Request: Form: Entry with minimum Drug uptake (choose one): a / b Use the label to indicate which entry you chose.
Result: b

(I) O=C(Nc1ccn([C@H]2C[C@H](O)[C@@H](CO)O2)c(=O)n1)c1ccc(-c2c3ccc(=O)cc-3oc3cc(O)ccc23)c(C(=O)O)c1
(II) O=C(CCCCC[P+](c1ccccc1)(c1ccccc1)c1ccccc1)OC[C@H]1O[C@@H](n2ccc(NC(=O)c3ccc(-c4c5ccc(=O)cc-5oc5cc(O)ccc45)c(C(=O)O)c3)nc2=O)C[C@@H]1O.O=C([O-])C(F)(F)F
Request: Please tell me which of the two, I or II , has the higher reported Drug uptake value. Use the label to indicate which entry you chose.
Result: I
(I: 12%, II: 0.8%)

----------
experiment: Cytotoxicity against human MCF7 cells assessed as cell viability upto 50 uM measured after 72 hrs by MTT assay relative to control; assay type: toxicity, cell-based; conditions: read-out: Activity
measure.name: viability at 72 h, up to 50 µM (%)
A number alone suffices; assume %.

Lookup result for O=C(CCCCCCCCC[P+](c1ccccc1)(c1ccccc1)c1ccccc1)OC[C@H]1O[C@@H](n2ccc(NC(=O)c3ccc(-c4c5ccc(=O)cc-5oc5cc(O)ccc45)c(C(=O)O)c3)nc2=O)C[C@@H]1O.O=C([O-])C(F)(F)F ; measured viability at 72 h, up to 50 µM: 84

----------
assay: Drug concentration in living human MCF7 cells at 5 uM incubated for 24 hrs by flow cytometry analysis; type: ADME, cell-based; conditions: mcf7, 24 h
measure.name: Drug uptake (%)

(1) O=C(CCCCC[P+](c1ccccc1)(c1ccccc1)c1ccccc1)OC[C@H]1O[C@@H](n2ccc(NC(=O)c3ccc(-c4c5ccc(=O)cc-5oc5cc(O)ccc45)c(C(=O)O)c3)nc2=O)C[C@@H]1O.O=C([O-])C(F)(F)F
(2) O=C(CCCCCCCCC[P+](c1ccccc1)(c1ccccc1)c1ccccc1)OC[C@H]1O[C@@H](n2ccc(NC(=O)c3ccc(-c4c5ccc(=O)cc-5oc5cc(O)ccc45)c(C(=O)O)c3)nc2=O)C[C@@H]1O.O=C([O-])C(F)(F)F
(3) O=C(Nc1ccn([C@H]2C[C@H](O)[C@@H](CO)O2)c(=O)n1)c1ccc(-c2c3ccc(=O)cc-3oc3cc(O)ccc23)c(C(=O)O)c1
(4) O=C(CC[P+](c1ccccc1)(c1ccccc1)c1ccccc1)OC[C@H]1O[C@@H](n2ccc(NC(=O)c3ccc(-c4c5ccc(=O)cc-5oc5cc(O)ccc45)c(C(=O)O)c3)nc2=O)C[C@@H]1O.O=C([O-])C(F)(F)F
Request: With the 4 compounds above, produce a list ordered by ascending Drug uptake. To answer, arrange all of the labels according to the requested order.
Result: 1, 3, 2, 4
